Values were extracted from patent US20260000597A1.

# TESTED_TARGET: AchR (Homo sapiens, UniProt P02708)
# Sequence (P02708 21-457): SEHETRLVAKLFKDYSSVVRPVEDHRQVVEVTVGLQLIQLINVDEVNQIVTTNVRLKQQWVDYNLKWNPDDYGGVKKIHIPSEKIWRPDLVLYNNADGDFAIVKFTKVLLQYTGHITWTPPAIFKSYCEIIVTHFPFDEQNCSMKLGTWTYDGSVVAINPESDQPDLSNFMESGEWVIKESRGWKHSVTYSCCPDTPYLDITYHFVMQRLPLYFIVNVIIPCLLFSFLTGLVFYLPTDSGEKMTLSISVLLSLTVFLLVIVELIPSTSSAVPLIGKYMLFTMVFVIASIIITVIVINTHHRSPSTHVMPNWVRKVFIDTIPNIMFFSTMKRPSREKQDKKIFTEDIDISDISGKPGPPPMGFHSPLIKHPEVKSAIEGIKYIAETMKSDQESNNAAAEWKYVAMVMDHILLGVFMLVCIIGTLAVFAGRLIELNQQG
# METHOD_NOTES: ELISA of screened peptide phages on AchR versus streptavidin (OD450)
# Format: binding
# ASSAY_CONTEXT: ELISA of selected 14-mer (L3) peptide phages on AchR, absorbance at 450 nm; Spep-2 positive control
Label Condition met when OD >= 0.6; otherwise Condition not met.

Problem: Assess whether reported OD for L3-122 (MHPRPRKMSHKMSC; AchR binding peptide) [Peptide L3-122] sits at 0.6 or higher.
Solution: Condition met

Problem: Assess whether reported OD for L3-163 (PFTKMRKQFQRMSA; AchR binding peptide) [Peptide L3-163] sits at 0.6 or higher.
Solution: Condition met
